- target.or.test.system: tissue factor/factor VIIa (Homo sapiens, UniProt P08709)
- Sequence (P08709 213-466 limits assumed): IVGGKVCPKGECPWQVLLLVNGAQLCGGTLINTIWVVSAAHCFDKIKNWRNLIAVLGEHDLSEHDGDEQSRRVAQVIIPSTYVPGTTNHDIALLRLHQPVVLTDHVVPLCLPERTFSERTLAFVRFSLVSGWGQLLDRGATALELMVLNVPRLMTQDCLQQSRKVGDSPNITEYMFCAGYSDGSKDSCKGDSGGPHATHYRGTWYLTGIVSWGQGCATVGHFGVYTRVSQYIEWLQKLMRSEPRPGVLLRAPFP
- Sequence (P08709 61-212 limits assumed): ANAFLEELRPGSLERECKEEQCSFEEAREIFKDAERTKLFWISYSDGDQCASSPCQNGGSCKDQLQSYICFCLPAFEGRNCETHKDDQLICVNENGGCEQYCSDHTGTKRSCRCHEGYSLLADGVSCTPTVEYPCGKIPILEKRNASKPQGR
- Sequence (P13726 33-251 partner limits assumed): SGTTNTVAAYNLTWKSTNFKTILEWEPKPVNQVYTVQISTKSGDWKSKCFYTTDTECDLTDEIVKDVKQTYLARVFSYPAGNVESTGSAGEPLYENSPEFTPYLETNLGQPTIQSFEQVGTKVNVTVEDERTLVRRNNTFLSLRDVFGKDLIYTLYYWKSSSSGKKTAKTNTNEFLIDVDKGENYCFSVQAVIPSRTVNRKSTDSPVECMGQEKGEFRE
- protocol: Tissue Factor/Factor VIIa antagonist assay (chromogenic, Ki)
- conditions.used: 10 nM VIIa, 30 nM TF, Chromozym-tPA 1.33 mM; read-out: binding affinity to serine proteases: VIIa
Could you please report measured log10(Ki) for the items listed next?
Each number you see is log10 of Ki, and the unit inside the log is µM.

Examples from the recorded data:
{"compound": "N=C(N)c1cccc(O[C@H]2CN[C@H](C(=O)Nc3cccc(C(F)(F)F)c3)C2)c1", "numeric.result": 2.18}
{"compound": "N=C(N)c1cccc(O[C@H]2CN[C@H](C(=O)N3CCCC3)C2)c1", "numeric.result": 2.11}
{"compound": "N=C(N)c1cccc(O[C@H]2CN[C@H](C(=O)NC3CCCCC3)C2)c1", "numeric.result": 2.37}
{"compound": "C=CCOC(=O)[C@@H]1C[C@@H](Oc2cccc(C(=N)N)c2)CN1", "numeric.result": 1.19}

The following compounds each have a reported value; give each one's log10(Ki).
1. N=C(N)c1cccc(O[C@H]2CN[C@H](C(=O)N3CCCC(CO)C3)C2)c1 (stereo partly shown)
2. N#Cc1ccccc1NC(=O)[C@@H]1C[C@@H](Oc2cccc(C(=N)N)c2)CN1
3. CCCN1C[C@H](Oc2cccc(C(=N)N)c2)C[C@H]1C(=O)Nc1ccc(C(=N)N)cc1

1. 2.07
2. 1.95
3. 0.89

###

- target.or.test.system: human Factor Xa (Homo sapiens)
- Construct: This complex converts factor X to Xa
- protocol: Factor Xa assay (chromogenic, Ki)
- conditions.used: 3.3 nM Xa, S-2222 0.5 mM; read-out: binding affinity to serine proteases: Xa
pKi: −log10 of the molar value.
Rule: pKi under 5 gives NOT MET, otherwise MET.

Field: example entries. Status: answers known.
{"molecule": "N=C(N)c1cccc(O[C@H]2CN[C@H](C(=O)N[C@@H](CCC(=O)O)C(=O)O)C2)c1", "target.or.test.system": "human Factor Xa (Homo sapiens)", "class.assignment": "NOT MET"}
{"molecule": "N=C(N)c1cccc(O[C@H]2CN[C@H](C(=O)N3CCCC(C(=O)O)C3)C2)c1 (stereo partly shown)", "target.or.test.system": "human Factor Xa (Homo sapiens)", "class.assignment": "NOT MET"}
{"molecule": "CN(Cc1ccccc1)C(=O)[C@@H]1C[C@@H](Oc2cccc(C(=N)N)c2)CN1Cc1ccccc1", "target.or.test.system": "human Factor Xa (Homo sapiens)", "class.assignment": "MET"}
{"molecule": "N=C(N)c1cccc(O[C@H]2CN[C@H](C(=O)N3CCc4ccccc4C3)C2)c1", "target.or.test.system": "human Factor Xa (Homo sapiens)", "class.assignment": "MET"}

Check this molecule for pKi at or above 5: N=C(N)c1ccc(NC(=O)[C@@H]2C[C@@H](Oc3cccc(C(=N)N)c3)CN2Cc2ccccc2[N+](=O)[O-])cc1 [compound 5]
MET

Reported pKi at or above 5? N=C(N)c1ccc(NC(=O)[C@@H]2C[C@@H](Oc3cccc(C(=N)N)c3)CN2Cc2ccccc2[N+](=O)[O-])cc1 [compound 7]
MET

Textbook exercise: given the entry "N=C(N)c1cccc(O[C@H]2CN[C@H](C(=O)N3CCCCC3)C2)c1" , state whether its pKi is greater than or equal to 5.
NOT MET

###

- target.or.test.system: UniProtKB P00760
- Sequence (P00760 24-246): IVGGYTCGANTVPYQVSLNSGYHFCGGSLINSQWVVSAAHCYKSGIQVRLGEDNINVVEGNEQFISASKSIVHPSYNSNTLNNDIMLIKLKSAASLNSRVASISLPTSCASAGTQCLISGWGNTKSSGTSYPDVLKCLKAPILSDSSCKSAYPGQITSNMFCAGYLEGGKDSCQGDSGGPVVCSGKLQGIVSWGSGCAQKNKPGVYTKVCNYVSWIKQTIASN
quantity.kind: pKi
Numbers only, as −log10 of the molar value.

Solved cases below.
{"molecule": "C=CCOC(=O)[C@@H]1C[C@@H](Oc2cccc(C(=N)N)c2)CN1 [compound 27]", "quantity.kind": "pKi", "numeric.result": 4.85}
{"molecule": "N=C(N)c1ccc(NC(=O)[C@@H]2C[C@@H](Oc3cccc(C(=N)N)c3)CN2Cc2ccccc2[N+](=O)[O-])cc1 [compound 7]", "quantity.kind": "pKi", "numeric.result": 5.65}
{"molecule": "N=C(N)c1cccc(O[C@@H]2C[C@@H](C(=O)Nc3ccc(Cl)cc3)N(C(=O)c3ccccc3)C2)c1 [compound 17]", "quantity.kind": "pKi", "numeric.result": 5.44}
{"molecule": "N=C(N)c1ccc(NC(=O)[C@@H]2C[C@@H](Oc3cccc(C(=N)N)c3)CN2C2CCCCC2)cc1 [compound 6]", "quantity.kind": "pKi", "numeric.result": 5.29}
{"molecule": "COC(=O)[C@@H]1C[C@@H](Oc2cccc(C(=N)N)c2)CN1 [compound 80]", "quantity.kind": "pKi", "numeric.result": 4.55}

Parameter requested: pKi. Apply to each item below.
1. N=C(N)c1cccc(O[C@@H]2C[C@@H](C(=O)N3CCc4ccccc4C3)N(C(=O)c3ccccc3)C2)c1 [compound 32]
2. CCCN1C[C@H](Oc2cccc(C(=N)N)c2)C[C@H]1C(=O)Nc1ccc(C(=N)N)cc1 [compound 1]

1. 5.11
2. 6.06

###

pKi values recorded for trypsin (Bos taurus, UniProt P00760)
Numbers only, as −log10 of the molar value.

Recorded pKi, per entry:
{"compound": "N=C(N)c1cccc(O[C@H]2CN[C@H](C(=O)Nc3ccccc3)C2)c1", "quantity.kind": "pKi", "numeric.result": 4.70}
{"compound": "C=CCOC(=O)[C@@H]1C[C@@H](Oc2cccc(C(=N)N)c2)CN1C(=O)c1ccccc1", "quantity.kind": "pKi", "numeric.result": 5.37}
{"compound": "N=C(N)c1ccc(NC(=O)[C@@H]2C[C@@H](Oc3cccc(C(=N)N)c3)CN2Cc2ccccc2[N+](=O)[O-])cc1 [compound 5]", "quantity.kind": "pKi", "numeric.result": 5.67}
{"compound": "CCCCCCN1C[C@H](Oc2cccc(C(=N)N)c2)C[C@H]1C(=O)Nc1ccc(C(=N)N)cc1", "quantity.kind": "pKi", "numeric.result": 5.22}

Reported pKi for "CC(=O)N1C[C@H](Oc2cccc(C(=N)N)c2)C[C@H]1C(=O)Nc1ccc(C(=N)N)cc1" was 4.99

###

- target.or.test.system: tissue factor/factor VIIa (Homo sapiens, UniProt P08709)
- protocol: Tissue Factor/Factor VIIa antagonist assay (chromogenic, Ki)
- conditions.used: 10 nM VIIa, 30 nM TF, Chromozym-tPA 1.33 mM; read-out: binding affinity to serine proteases: VIIa
quantity.kind: Ki (µM)
Give bare numbers, in µM.

{"record.smiles": "N=C(N)c1cccc(O[C@H]2CN[C@H](C(=O)Nc3ccc(C(F)(F)F)cc3)C2)c1", "measurement.unit": "µM", "numeric.result": 312}

Lab note: measured Ki of "C[C@H](NC(=O)[C@@H]1C[C@@H](Oc2cccc(C(=N)N)c2)CN1)c1ccccc1" was 156

###

- target.or.test.system: tissue factor/factor VIIa (Homo sapiens, UniProt P08709)
- protocol: Tissue Factor/Factor VIIa antagonist assay (chromogenic, Ki)
- conditions.used: 10 nM VIIa, 30 nM TF, Chromozym-tPA 1.33 mM; read-out: binding affinity to serine proteases: VIIa
I'd appreciate it if you could supply Ki values for the items below.
One number for each entry, in µM.

{"record.smiles": "N=C(N)c1cccc(O[C@H]2CN[C@H](C(=O)Nc3ccc4ccccc4c3)C2)c1", "target.or.test.system": "tissue factor/factor VIIa (Homo sapiens, UniProt P08709)", "numeric.result": 117}

Switching to the query record.
# "N=C(N)c1cccc(O[C@H]2CN[C@H](C(=O)N3CCc4ccccc4C3)C2)c1" with tissue factor/factor VIIa (Homo sapiens, UniProt P08709): Ki is 98.5

###

Please go through the items and note down their pKi.
- target.or.test.system: tissue factor/factor VIIa (Homo sapiens, UniProt P08709)
- protocol: Tissue Factor/Factor VIIa antagonist assay (chromogenic, Ki)
- conditions.used: 10 nM VIIa, 30 nM TF, Chromozym-tPA 1.33 mM; read-out: binding affinity to serine proteases: VIIa
Answers are plain numbers, as −log10 of the molar value.

{"compound": "Cc1ccccc1NC(=O)[C@@H]1C[C@@H](Oc2cccc(C(=N)N)c2)CN1", "target.or.test.system": "tissue factor/factor VIIa (Homo sapiens, UniProt P08709)", "pKi": 3.93}

Below: the item to evaluate.
Reported pKi for N=C(N)c1cccc(O[C@H]2CN[C@H](C(=O)NC3CCc4ccccc43)C2)c1 (stereo partly shown) was 3.81

###

- target.or.test.system: human Factor Xa (Homo sapiens, UniProt P00742)
- Construct: This complex converts factor X to Xa
- Sequence (P00742 235-488 limits assumed): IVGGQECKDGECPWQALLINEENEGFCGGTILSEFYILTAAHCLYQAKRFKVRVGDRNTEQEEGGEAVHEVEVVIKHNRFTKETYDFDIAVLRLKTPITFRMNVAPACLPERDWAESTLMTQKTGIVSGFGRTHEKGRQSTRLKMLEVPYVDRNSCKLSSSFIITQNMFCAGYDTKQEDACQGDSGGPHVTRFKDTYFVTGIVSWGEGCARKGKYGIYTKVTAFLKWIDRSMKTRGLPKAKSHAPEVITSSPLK
- Sequence (P00742 41-179 limits assumed): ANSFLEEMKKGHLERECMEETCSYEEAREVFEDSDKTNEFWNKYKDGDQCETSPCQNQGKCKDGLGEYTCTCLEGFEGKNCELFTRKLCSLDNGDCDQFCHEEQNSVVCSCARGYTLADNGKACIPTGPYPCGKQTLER
- protocol: Factor Xa assay (chromogenic, Ki)
- conditions.used: 3.3 nM Xa, S-2222 0.5 mM; read-out: binding affinity to serine proteases: Xa
Assignment: determine reported pKi for the given molecules.
One number for each entry, as −log10 of the molar value.

{"molecule": "N=C(N)c1cccc(O[C@H]2CN[C@H](C(=O)Nc3cccc4ccccc34)C2)c1 [compound 33]", "pKi": 4.81}
{"molecule": "N=C(N)c1cccc(O[C@H]2CN[C@H](C(=O)NCCC3CNc4ccccc43)C2)c1 (some centres unmarked) [compound 12]", "pKi": 5.22}
{"molecule": "CN(C(=O)[C@@H]1C[C@@H](Oc2cccc(C(=N)N)c2)CN1)c1ccccc1 [compound 40]", "pKi": 4.64}
{"molecule": "N=C(N)c1cccc(O[C@H]2CN[C@H](C(=O)NCc3ccc(N)cc3)C2)c1 [compound 30]", "pKi": 4.82}

For each listed entry, give its pKi.
1. N=C(N)c1cccc(O[C@H]2CN[C@H](C(=O)N3CCCC(CO)C3)C2)c1 (some centres unmarked) [compound 69]
2. C=CCOC(=O)[C@@H]1C[C@@H](Oc2cccc(C(=N)N)c2)CN1 [compound 27]
3. N=C(N)c1cccc(O[C@H]2CN[C@H](C(=O)NCCc3ccccc3)C2)c1 [compound 41]
4. CC(=O)N1C[C@H](Oc2cccc(C(=N)N)c2)C[C@H]1C(=O)Nc1ccc(C(=N)N)cc1 [compound 14]
5. COc1ccc(CNC(=O)[C@@H]2C[C@@H](Oc3cccc(C(=N)N)c3)CN2S(C)(=O)=O)cc1 [compound 48]
6. N=C(N)c1cccc(O[C@H]2CN[C@H](C(=O)N3CCCCC3CO)C2)c1 (some centres unmarked) [compound 68]
7. N=C(N)c1cccc(O[C@H]2CN[C@H](C(=O)N3CCCCC3CCO)C2)c1 (some centres unmarked) [compound 62]
8. N=C(N)c1cccc(O[C@H]2CN[C@H](C(=O)N3CCCC3)C2)c1 [compound 38]

4.04
4.85
4.62
5.18
4.47
4.05
4.19
4.66
